Values compiled from paper PMC10035947.

# System: 786-0
# assay remarks: NCI SRB assay
# Format: cell-based, human
# recorded conditions: 786-0, 1.00E-5 Molar
Overview of recorded Growth Percent for various compounds
The reply should be a number in %, with the unit left off.

Enquiry: Please supply the value of reported Growth Percent for the item Cc1ccc(-c2nc(Nc3cccc(C(=O)O)c3)c3ccccc3n2)cc1 [7b]
Return: 76.25

Enquiry: Please supply the value of reported Growth Percent for the item COc1ccc(-c2nc(Nc3ccccc3C(=O)O)c3ccccc3n2)cc1 [6c]
Return: 51.90

Enquiry: Please supply the value of reported Growth Percent for the item Cc1cccc(-c2nc(Nc3ccc(C(=O)O)cc3)c3ccccc3n2)c1 [8a]
Return: 70.77

Enquiry: Please supply the value of reported Growth Percent for the item Cc1cccc(-c2nc(Nc3ccccc3C(=O)O)c3ccccc3n2)c1 [6a]
Return: 25.01

Enquiry: Please supply the value of reported Growth Percent for the item Cc1ccc(-c2nc(Nc3ccc(C(=O)O)cc3)c3ccccc3n2)cc1 [8b]
Return: 85.63

Enquiry: Please supply the value of reported Growth Percent for the item Cc1ccc(-c2nc(Nc3ccccc3C(=O)O)c3ccccc3n2)cc1 [6b]
Return: 18.67
